Provide the reported pIC50 of each item.
- Tgt: Serine/threonine-protein kinase Nek2 (Homo sapiens)
- Sequence (P51955 whole entry): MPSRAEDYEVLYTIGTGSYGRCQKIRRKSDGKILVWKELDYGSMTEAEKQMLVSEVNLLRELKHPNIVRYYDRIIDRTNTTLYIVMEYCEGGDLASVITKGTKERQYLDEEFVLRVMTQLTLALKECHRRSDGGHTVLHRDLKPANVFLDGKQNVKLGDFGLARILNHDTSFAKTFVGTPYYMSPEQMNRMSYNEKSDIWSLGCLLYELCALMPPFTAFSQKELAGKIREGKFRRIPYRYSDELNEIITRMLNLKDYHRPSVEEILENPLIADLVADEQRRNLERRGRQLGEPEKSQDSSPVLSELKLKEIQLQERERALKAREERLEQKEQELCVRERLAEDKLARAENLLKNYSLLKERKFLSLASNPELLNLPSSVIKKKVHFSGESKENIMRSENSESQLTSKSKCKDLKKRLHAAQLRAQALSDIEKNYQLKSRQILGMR
Quick note: pIC50 values are minus log10 of concentrations in mol/L.

Exercise: What value of pIC50 has been recorded for this entry: Nc1ncc(-c2cccs2)nc1N1CCC(C(=O)O)CC1
Key: 5.37

Exercise: Request the reported pIC50 associated with CCc1cc(-c2nc(-c3cc(OC)c(OC)c(OC)c3)cnc2N)ccc1C(=O)O
Key: 4.58

Exercise: Look up pIC50: COc1cc(OC)cc(-c2cnc(N)c(N3CCC(C(=O)O)CC3)n2)c1
Key: 5.72
